System: K-562
Experiment: Inhibition of cells growth by colorimetric (SRB) assay, K-562
Settings: read-out: LC50 K-562; SRB assay, 48 hours exposure
# label = 1 if CC50 < 20 µM else 0

Solved cases below.
Ask: Does the reported CC50 of the following compound sit strictly below 20 µM? COc1nccc(-c2c3cccnc3n3c(N)nccc23)n1 [Compound 76]
Reply: 1

Ask: Does the reported CC50 of the following compound sit strictly below 20 µM? Cl.Nc1nccc2c(-c3ccncn3)c3c(O)ccnc3n12 [Compound 101]
Reply: 0

Ask: Does the reported CC50 of the following compound sit strictly below 20 µM? CCOc1nccc(-c2c3cccnc3n3c(N)nccc23)n1 [Compound 77]
Reply: 0

Ask: Does the reported CC50 of the following compound sit strictly below 20 µM? Nc1nccc(-c2c3cc4ccccc4nc3n3c(N)nccc23)n1 [Compound 19a]
Reply: 0

Ask: Does the reported CC50 of the following compound sit strictly below 20 µM? Cl.Nc1nccc(-c2c3c(N)ccnc3n3c(N)nccc23)n1 [Compound 91]
Reply: 0

Ask: Does the reported CC50 of the following compound sit strictly below 20 µM? COc1ccnc2c1c(-c1ccnc(N)n1)c1ccnc(N)n12.Cl [Compound 116]
Reply: 0

Ask: Does the reported CC50 of the following compound sit strictly below 20 µM? CCOc1nccc(-c2c3cccnc3n3c(N)nccc23)n1.Cl [Compound 82]
Reply: 1

Ask: Does the reported CC50 of the following compound sit strictly below 20 µM? COc1nccc(-c2c3cccnc3n3c(N)nccc23)n1.Cl [Compound 81]
Reply: 1

***
Ask: Does the reported CC50 of the following compound sit strictly below 20 µM? Cc1ccc2c(-c3ccnc(N)n3)c3ccnc(N)n3c2n1 [Compound 24]
Reply: 0
